target: Mouse TMEM16A (Mus musculus, UniProt Q8BHY3); test: Whole-cell concentration-jump protocol separating A9C block and activation, 300 nM [Ca2+]i; settings: 300 nM [Ca2+]i, extracellular A9C, Woodhull fit; read-out: K d(0) (apparent dissociation constant from activating site at 0 mV)
measuredParameter: Kd (mM)

# smilesNotation, measuredParameter, recordedResult
rows = [
    ("O=C(O)c1c2ccccc2cc2ccccc12", "Kd", 8.95),
]

----------
Target: Mouse TMEM16A (Mus musculus)
Construct: expressed in transfected cells; host or cells: HEK-293T
Sequence (Q8BHY3 1-960): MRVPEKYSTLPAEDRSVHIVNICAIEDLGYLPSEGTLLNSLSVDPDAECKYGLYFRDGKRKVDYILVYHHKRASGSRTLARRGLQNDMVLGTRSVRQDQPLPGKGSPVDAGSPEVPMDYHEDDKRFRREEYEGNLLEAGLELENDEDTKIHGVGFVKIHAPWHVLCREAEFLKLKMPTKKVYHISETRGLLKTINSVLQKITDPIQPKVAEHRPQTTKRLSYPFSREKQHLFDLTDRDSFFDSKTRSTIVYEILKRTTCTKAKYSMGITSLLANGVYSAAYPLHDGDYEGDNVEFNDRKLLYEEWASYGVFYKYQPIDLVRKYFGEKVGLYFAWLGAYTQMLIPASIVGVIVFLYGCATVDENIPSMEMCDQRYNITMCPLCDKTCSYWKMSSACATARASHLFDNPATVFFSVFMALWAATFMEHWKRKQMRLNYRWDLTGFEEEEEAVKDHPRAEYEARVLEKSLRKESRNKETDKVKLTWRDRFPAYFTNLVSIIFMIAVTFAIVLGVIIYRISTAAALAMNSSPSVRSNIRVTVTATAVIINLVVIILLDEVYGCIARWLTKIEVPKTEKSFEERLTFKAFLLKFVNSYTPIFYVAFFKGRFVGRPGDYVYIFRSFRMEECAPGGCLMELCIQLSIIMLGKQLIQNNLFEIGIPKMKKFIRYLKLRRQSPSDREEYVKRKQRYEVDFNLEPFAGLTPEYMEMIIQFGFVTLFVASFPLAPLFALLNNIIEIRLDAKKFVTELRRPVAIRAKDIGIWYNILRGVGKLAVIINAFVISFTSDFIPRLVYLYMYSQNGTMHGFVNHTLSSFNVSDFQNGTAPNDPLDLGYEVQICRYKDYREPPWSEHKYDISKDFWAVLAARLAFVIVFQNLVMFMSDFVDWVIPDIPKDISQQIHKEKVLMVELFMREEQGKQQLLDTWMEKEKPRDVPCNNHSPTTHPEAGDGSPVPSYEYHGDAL
Test: Time-course of current block analysed by Langmuir formalism (kon, koff), 12.5 μM [Ca2+]i
Assay type: cell-based
Details: Vm 20 mV, read-out: Ki calculated as koff/kon
pKi: −log10 of the molar value.
measuredParameter: pKi

# smilesNotation, recordedResult
measured = [
    ("O=C(O)c1c2ccccc2cc2ccccc12", 3.77),
]

----------
Biological target: Mouse TMEM16A (Mus musculus)
Construct: expressed in transfected cells; host or cells: HEK-293T
Sequence (Q8BHY3 1-960): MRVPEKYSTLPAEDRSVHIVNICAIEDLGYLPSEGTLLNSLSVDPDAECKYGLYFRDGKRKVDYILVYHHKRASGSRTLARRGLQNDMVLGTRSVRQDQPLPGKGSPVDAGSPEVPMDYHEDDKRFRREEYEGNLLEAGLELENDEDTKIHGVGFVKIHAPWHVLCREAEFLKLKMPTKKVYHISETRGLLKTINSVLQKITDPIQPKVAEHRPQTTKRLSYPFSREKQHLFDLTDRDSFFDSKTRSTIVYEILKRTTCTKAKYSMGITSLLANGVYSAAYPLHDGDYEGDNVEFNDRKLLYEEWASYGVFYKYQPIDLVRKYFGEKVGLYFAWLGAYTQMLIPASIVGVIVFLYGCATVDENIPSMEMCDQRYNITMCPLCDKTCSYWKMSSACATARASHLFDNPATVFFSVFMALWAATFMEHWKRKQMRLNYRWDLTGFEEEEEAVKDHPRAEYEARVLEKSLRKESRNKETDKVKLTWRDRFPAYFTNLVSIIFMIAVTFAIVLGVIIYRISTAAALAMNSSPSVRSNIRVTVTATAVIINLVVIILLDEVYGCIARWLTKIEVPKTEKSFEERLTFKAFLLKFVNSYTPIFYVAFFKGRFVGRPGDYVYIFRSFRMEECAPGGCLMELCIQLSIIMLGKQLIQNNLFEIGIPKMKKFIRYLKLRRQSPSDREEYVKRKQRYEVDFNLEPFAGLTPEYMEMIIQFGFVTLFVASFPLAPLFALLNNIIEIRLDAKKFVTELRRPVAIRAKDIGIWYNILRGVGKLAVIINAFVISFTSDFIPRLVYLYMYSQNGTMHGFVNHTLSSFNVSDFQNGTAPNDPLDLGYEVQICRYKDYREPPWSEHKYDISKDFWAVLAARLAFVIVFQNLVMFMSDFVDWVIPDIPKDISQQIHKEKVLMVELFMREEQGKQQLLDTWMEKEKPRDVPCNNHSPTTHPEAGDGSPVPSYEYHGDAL
Assay: Whole-cell concentration-jump protocol separating A9C block and activation, 300 nM [Ca2+]i
Type: cell-based
Settings: V m 40 mV, 300 nM [Ca2+]i, [A9C]ext; read-out: IC50 (a) inhibition
pIC50: −log10 of the molar value.

# molecule, pIC50
measured = [
    ("O=C(O)c1c2ccccc2cc2ccccc12 [A9C, Anthracene‐9‐carboxylic acid]", 3.07),
]
